System: SW-620 colon
Assay remarks: NCI tumour cell line growth inhibition, 48 h
Endpoint label: TGI

{"columns": ["Molecule", "Observed"],
 "data": [
  ["COc1cc(Cn2c(-c3ccccc3)cc3c2-c2oncc2CC3)cc(OC)c1", "> 100 µM"],
  ["CCOC(=O)CC(NC(=O)c1ccc(N=NN(C)C)cc1)C(=O)OCC (stereo not given)", "> 100 µM"],
  ["CC(N1CCOCC1)C(O)(c1ccccc1)c1ccccn1 (stereo not given)", "> 100 µM"],
  ["COC(=O)c1ccc(NCC2=C(Br)C(=O)C=CC2=O)cc1Cl", "30.8 µM"],
  ["CC(C)(C)Sc1nnc(SC(C)(C)C)c2c(=O)[nH]nc(SC(C)(C)C)c12", "20.8 µM"]
]}

Exercise: GET /values?readout=TGI&item= Cc1ccc(S(=O)(=O)Nn2c(O)c(C#N)c(-c3ccc([N+](=O)[O-])cc3)c(C#N)c2=O)cc1
Key: > 100 µM

Exercise: Again, but for COc1ccc(C2=Nc3c/c(=C\c4c(O)[nH]c5cc(Cl)ccc45)ccc3=N2)cc1
Key: 19 µM

Exercise: Again, but for COc1ccc(-c2nc(C(=O)c3ccccc3)n(CC(=O)c3ccc(Cl)cc3)c2-c2ccc(OC)cc2)cc1
Key: > 100 µM

Exercise: Again, but for Cc1c(Cl)cccc1NC(=O)c1sc2nc3c(cc2c1N)CCCC3
Key: > 100 µM

Exercise: Again, but for C=CCNC(=S)/N=C/C(C(=O)Nc1ccccc1C)=C(\C)O
Key: > 100 µM

Exercise: Again, but for COC(=O)C(NC(=O)OC(C)(C)C)P(=O)(OC)OC (stereo not given)
Key: > 100 µM

Exercise: Again, but for Cc1cc2nc3c4ccc(Br)cc4n(CCN(C)C)c3nc2cc1C
Key: 1.84 µM

Exercise: Again, but for CCN(CC)Cc1cc(Nc2c3ccccc3nc3cc(Cl)ccc23)ccc1O
Key: 3.63 µM

###

Tested on: HL-60(TB) leukemia
Assay remarks: NCI tumour cell line growth inhibition, 48 h
Entries annotated with measured TGI
Just the number in µM, nothing appended.

Some solved cases for reference:
{"columns": ["Compound", "Target under test", "Observed"],
 "data": [
  ["O=C1/C(=C\\c2ccccc2)C2OCC=C3CN4CCC56c7ccccc7N1C5C2C3CC46 (configuration not stated)", "HL-60(TB) leukemia", 20.9],
  ["CC[C@@]1(O)C(=O)OCc2c1cc1n(c2=O)Cc2c-1nc1ccccc1c2/C=N\\NC(=O)C(N)Cc1c[nH]c2ccccc12 (some centres not stated)", "HL-60(TB) leukemia", 12.1],
  ["O=C(NCCCCCN1CCC2(CCCCC2)CC1)C(C1CCCCC1)C1CCCCC1", "HL-60(TB) leukemia", 3.62]
]}

Exercise: GET /values?readout=TGI&item= CC(/C=N/N=C(N)N)=N\N=C(N)N
Key: 578

Exercise: Again, but for CN(C)CN(C)c1nc(N(C)C)nc(N(C)CN(C)C)n1
Key: 36.4

Exercise: Again, but for COc1ccc2c(c1)/C(=N/OC(C)=O)c1c-2cnc2ccccc12
Key: 67

###

Entries annotated with measured TGI
Test system: T-47D breast
Assay remarks: NCI tumour cell line growth inhibition, 48 h

Exercise: GET /values?readout=TGI&item= CCCOC(=O)C1C2CCC(O2)C1C(=O)O (stereo unspecified)
Key: > 100 µM

Exercise: Again, but for Cc1ccc(/C=C2/N=C(N/N=C\c3ccccc3)NC2=O)cc1
Key: > 100 µM

Exercise: Again, but for CC(N1CCOCC1)C(O)(c1ccccc1)c1ccccn1 (stereo unspecified)
Key: > 100 µM

###

Entries annotated with measured TGI
Tested on: MDA-N
Assay remarks: NCI tumour cell line growth inhibition, 48 h
Just the number in µM, nothing appended.

Some solved cases for reference:
{"columns": ["Molecule", "TGI [µM]"],
 "data": [
  ["COC(=O)/C(=N\\Nc1nnc(C)n1N)C(C#N)c1ccccc1 (stereo not given)", 44.4],
  ["COc1cc2c3c(cc(Cl)nc3c1OC)C(O)(CC(=O)c1ccccc1)C(=O)N2 (stereo not given)", 3.65],
  ["CC(/C=N/N=C(N)N)=N\\N=C(N)N", 354]
]}

Attention now turns to another entry.
Exercise: GET /values?readout=TGI&item= NN/C(=N\S(=O)(=O)c1ccc(S(=O)(=O)c2ccccc2)s1)Nc1ccc(Cl)cc1
Key: 41.8

###

System: NCI-H226 lung
Assay remarks: NCI tumour cell line growth inhibition, 48 h
Where a SMILES comes first, the peptide text is derived from it. The star is where a group is joined. Trt = c1ccc(C(c2ccccc2)(c2ccccc2)*)cc1; Cbz = O=C(OCc1ccccc1)*
Endpoint label: GI50

{"columns": ["Molecule", "Target under test", "Endpoint label", "Observed"],
 "data": [
  ["C=C(C)[C@@H]1CC[C@]2(CO)CC[C@]3(C)[C@H](CC[C@@H]4[C@@]5(C)CC[C@H](NCO)C(C)(C)[C@@H]5CC[C@]43C)[C@@H]12", "NCI-H226 lung", "GI50", "8.3 µM"],
  ["[CH3][Sn]1([CH3])[O]CC(COc2cc(Cl)c(Cl)cc2Cl)[O]1 (centres undefined)", "NCI-H226 lung", "GI50", "30.7 µM"],
  ["Oc1ccc(Cl)cc1/C=N\\NC(=S)N/N=C/c1cc(Cl)ccc1O", "NCI-H226 lung", "GI50", "2.34 µM"],
  ["COC(=O)C(CSC(c1ccccc1)(c1ccccc1)c1ccccc1)NC(=O)C(CC(N)=O)NC(=O)OCc1ccccc1 (stereo not drawn) (Cbz-Asn-Cys(Trt)-OMe; configuration not given here)", "NCI-H226 lung", "GI50", "5.43 µM"],
  ["O=C(c1ccc2ccccc2c1)c1c(C(F)(F)F)n([O-])c2ccc(F)cc2[n+]1=O", "NCI-H226 lung", "GI50", "1.96 µM"],
  ["Cc1c(Cl)cccc1NC(=O)c1sc2nc3c(cc2c1N)CCCC3", "NCI-H226 lung", "GI50", "> 100 µM"]
]}

Exercise: Which measured GI50 belongs to O=C(C=C=Nc1ccccc1)C(=O)N=C=Cc1ccccc1 , tested on NCI-H226 lung?
Key: 16.4 µM

Exercise: Again, but for Cc1c2ccncc2c(C)c2c1[nH]c1ccc(Cl)cc12
Key: 8.58 µM

Exercise: Again, but for COc1ccc(-c2nc(C(=O)c3ccccc3)n(CC(=O)c3ccc(Cl)cc3)c2-c2ccc(OC)cc2)cc1
Key: > 100 µM

###

Tested on: SN12C renal
Assay remarks: NCI tumour cell line growth inhibition, 48 h
Entries annotated with measured TGI

Some solved cases for reference:
{"columns": ["Chemical structure", "TGI"],
 "data": [
  ["N#Cc1nc(-c2cccc(-c3nc(C#N)c(N)o3)n2)oc1N", "> 100 µM"],
  ["COc1ccc(C2=Nc3c/c(=C\\c4c(O)[nH]c5cc(Cl)ccc45)ccc3=N2)cc1", "30 µM"],
  ["O=C(Nc1ccc2ccccc2c1)c1cc2cc(CCl)ccc2oc1=O", "> 100 µM"],
  ["CCNC(=S)N/N=C(\\C)c1cccc(C)n1", "> 100 µM"]
]}

Exercise: GET /values?readout=TGI&item= COC(=O)c1cc(/C=C\c2cc(OC)ccc2OC)ccc1OC
Key: > 100 µM

Exercise: Again, but for CN(C)CCCNC(=O)c1cn2c(ccc3sc4ccccc4c(=O)c32)n1
Key: 9.57 µM

###

Entries annotated with measured GI50
Test system: NCI/ADR-RES ovarian
Assay remarks: NCI tumour cell line growth inhibition, 48 h

{"columns": ["Chemical structure", "Target under test", "Endpoint label", "Observed"],
 "data": [
  ["COc1cc(/C=N/NC(=O)c2ccccc2Nc2cccc(C(F)(F)F)c2)cc(OC)c1OC", "NCI/ADR-RES ovarian", "GI50", "3.87 µM"],
  ["COc1cccc2c1cc1c3c(cc4c(c32)OCO4)C(=O)N1", "NCI/ADR-RES ovarian", "GI50", "2.71 µM"]
]}

Exercise: GET /values?readout=GI50&item= CCCCCCCCCCSC(=N)N
Key: 4.8 µM

Exercise: Again, but for O=C(/C=C/c1ccc([N+](=O)[O-])cc1)c1cccc(Nc2nc(Nc3ccccc3)nc(Nc3ccccc3)n2)c1
Key: 18.2 µM

Exercise: Again, but for Cc1cc2nc3c4ccc(Br)cc4n(CCN(C)C)c3nc2cc1C
Key: 0.609 µM

###

Test system: NCI-H23 lung
Assay remarks: NCI tumour cell line growth inhibition, 48 h
Endpoint label: GI50

Some solved cases for reference:
{"columns": ["Compound", "Endpoint label", "Observed"],
 "data": [
  ["Cc1cc2nc3c4ccc(Br)cc4n(CCN(C)C)c3nc2cc1C", "GI50", "1.5 µM"],
  ["COc1ccc(C(=O)c2cc3c(N)c(C(=O)Nc4cccc(OC)c4)sc3nc2C)cc1", "GI50", "1.7 µM"],
  ["CC(/C=N/N=C(N)N)=N\\N=C(N)N", "GI50", "31.1 µM"],
  ["Nc1nc(N)c2c(n1)NC(c1sc(Cl)nc1Cl)CC(c1ccc3c(c1)OCO3)=N2 (stereo not given)", "GI50", "8.87 µM"],
  ["Cc1c2ccncc2c(C)c2c1[nH]c1ccc(Cl)cc12", "GI50", "2.99 µM"]
]}

Exercise: GET /values?readout=GI50&item= CN=C(N)N/N=C(\C)c1ccc2c(c1)Cc1ccccc1-2
Key: 2.84 µM

This collection of values is drawn from PubChem BioAssay (NCI).
